B1: library; a variant is named by its letters at N, in order (parent)
chain: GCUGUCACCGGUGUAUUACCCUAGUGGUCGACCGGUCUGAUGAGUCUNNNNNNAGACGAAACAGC

# Variants of: B1
# RUN DESCRIPTION: normalized RNA/DNA level with ligand (relative to sTRSVctl = 100) (log10 (% of sTRSVctl)); ligand: hypoxanthine (xanthine aptamer); higher = less ribozyme self-cleavage, higher mRNA level
# CONDITION SUMMARY: ligand concentration (+) RNA-Seq: 5 mM, HEK293T, reporter: mCherry (pCS4076), ligand present: yes
QUANTITY: normalized RNA/DNA level with ligand (log10)

primary_sequence=GCUGUCACCGGUGUAUUACCCUAGUGGUCGACCGGUCUGAUGAGUCUCAUAUCAGACGAAACAGC reported_measurement=1.95
primary_sequence=GCUGUCACCGGUGUAUUACCCUAGUGGUCGACCGGUCUGAUGAGUCUCUACACAGACGAAACAGC reported_measurement=1.91
primary_sequence=GCUGUCACCGGUGUAUUACCCUAGUGGUCGACCGGUCUGAUGAGUCUCUAGGCAGACGAAACAGC reported_measurement=1.94
primary_sequence=GCUGUCACCGGUGUAUUACCCUAGUGGUCGACCGGUCUGAUGAGUCUACACUCAGACGAAACAGC reported_measurement=1.96
primary_sequence=GCUGUCACCGGUGUAUUACCCUAGUGGUCGACCGGUCUGAUGAGUCUUAAAACAGACGAAACAGC reported_measurement=1.91
primary_sequence=GCUGUCACCGGUGUAUUACCCUAGUGGUCGACCGGUCUGAUGAGUCUUUCACGAGACGAAACAGC reported_measurement=1.93
primary_sequence=GCUGUCACCGGUGUAUUACCCUAGUGGUCGACCGGUCUGAUGAGUCUUUAAUUAGACGAAACAGC reported_measurement=1.94
primary_sequence=GCUGUCACCGGUGUAUUACCCUAGUGGUCGACCGGUCUGAUGAGUCUGAGCGAAGACGAAACAGC reported_measurement=1.89
primary_sequence=GCUGUCACCGGUGUAUUACCCUAGUGGUCGACCGGUCUGAUGAGUCUCGCCAUAGACGAAACAGC reported_measurement=1.88
primary_sequence=GCUGUCACCGGUGUAUUACCCUAGUGGUCGACCGGUCUGAUGAGUCUGUUAGAAGACGAAACAGC reported_measurement=1.91
primary_sequence=GCUGUCACCGGUGUAUUACCCUAGUGGUCGACCGGUCUGAUGAGUCUAUCGAAAGACGAAACAGC reported_measurement=1.86
primary_sequence=GCUGUCACCGGUGUAUUACCCUAGUGGUCGACCGGUCUGAUGAGUCUCUACCAAGACGAAACAGC reported_measurement=1.93
primary_sequence=GCUGUCACCGGUGUAUUACCCUAGUGGUCGACCGGUCUGAUGAGUCUACCAGGAGACGAAACAGC reported_measurement=1.83
primary_sequence=GCUGUCACCGGUGUAUUACCCUAGUGGUCGACCGGUCUGAUGAGUCUUGAGGAAGACGAAACAGC reported_measurement=1.89
primary_sequence=GCUGUCACCGGUGUAUUACCCUAGUGGUCGACCGGUCUGAUGAGUCUGCUGCGAGACGAAACAGC reported_measurement=1.92
primary_sequence=GCUGUCACCGGUGUAUUACCCUAGUGGUCGACCGGUCUGAUGAGUCUUAGCUAAGACGAAACAGC reported_measurement=1.96
primary_sequence=GCUGUCACCGGUGUAUUACCCUAGUGGUCGACCGGUCUGAUGAGUCUAUCCAUAGACGAAACAGC reported_measurement=1.96
primary_sequence=GCUGUCACCGGUGUAUUACCCUAGUGGUCGACCGGUCUGAUGAGUCUGGAGACAGACGAAACAGC reported_measurement=1.86
primary_sequence=GCUGUCACCGGUGUAUUACCCUAGUGGUCGACCGGUCUGAUGAGUCUAGACGAAGACGAAACAGC reported_measurement=1.95
primary_sequence=GCUGUCACCGGUGUAUUACCCUAGUGGUCGACCGGUCUGAUGAGUCUUAGCAAAGACGAAACAGC reported_measurement=1.9
primary_sequence=GCUGUCACCGGUGUAUUACCCUAGUGGUCGACCGGUCUGAUGAGUCUCCCGAGAGACGAAACAGC reported_measurement=1.89
primary_sequence=GCUGUCACCGGUGUAUUACCCUAGUGGUCGACCGGUCUGAUGAGUCUAUCGGGAGACGAAACAGC reported_measurement=1.89
primary_sequence=GCUGUCACCGGUGUAUUACCCUAGUGGUCGACCGGUCUGAUGAGUCUACCAUUAGACGAAACAGC reported_measurement=1.97
primary_sequence=GCUGUCACCGGUGUAUUACCCUAGUGGUCGACCGGUCUGAUGAGUCUCAGCCUAGACGAAACAGC reported_measurement=2.04
primary_sequence=GCUGUCACCGGUGUAUUACCCUAGUGGUCGACCGGUCUGAUGAGUCUUCAUUUAGACGAAACAGC reported_measurement=1.96
primary_sequence=GCUGUCACCGGUGUAUUACCCUAGUGGUCGACCGGUCUGAUGAGUCUGUAUAAAGACGAAACAGC reported_measurement=1.87
primary_sequence=GCUGUCACCGGUGUAUUACCCUAGUGGUCGACCGGUCUGAUGAGUCUAGUAAAAGACGAAACAGC reported_measurement=1.89
primary_sequence=GCUGUCACCGGUGUAUUACCCUAGUGGUCGACCGGUCUGAUGAGUCUUUAAUCAGACGAAACAGC reported_measurement=1.95
primary_sequence=GCUGUCACCGGUGUAUUACCCUAGUGGUCGACCGGUCUGAUGAGUCUGGGGAAAGACGAAACAGC reported_measurement=1.91
primary_sequence=GCUGUCACCGGUGUAUUACCCUAGUGGUCGACCGGUCUGAUGAGUCUAUAGUCAGACGAAACAGC reported_measurement=1.93
primary_sequence=GCUGUCACCGGUGUAUUACCCUAGUGGUCGACCGGUCUGAUGAGUCUAUCUGUAGACGAAACAGC reported_measurement=1.91
primary_sequence=GCUGUCACCGGUGUAUUACCCUAGUGGUCGACCGGUCUGAUGAGUCUACGCGUAGACGAAACAGC reported_measurement=1.95
primary_sequence=GCUGUCACCGGUGUAUUACCCUAGUGGUCGACCGGUCUGAUGAGUCUCGACCGAGACGAAACAGC reported_measurement=1.9
primary_sequence=GCUGUCACCGGUGUAUUACCCUAGUGGUCGACCGGUCUGAUGAGUCUAAUUCCAGACGAAACAGC reported_measurement=1.98
